Biological target: Cytochrome P450 2D6 (Homo sapiens) (UniProt P10635)
Sequence (P10635 whole entry, looked up): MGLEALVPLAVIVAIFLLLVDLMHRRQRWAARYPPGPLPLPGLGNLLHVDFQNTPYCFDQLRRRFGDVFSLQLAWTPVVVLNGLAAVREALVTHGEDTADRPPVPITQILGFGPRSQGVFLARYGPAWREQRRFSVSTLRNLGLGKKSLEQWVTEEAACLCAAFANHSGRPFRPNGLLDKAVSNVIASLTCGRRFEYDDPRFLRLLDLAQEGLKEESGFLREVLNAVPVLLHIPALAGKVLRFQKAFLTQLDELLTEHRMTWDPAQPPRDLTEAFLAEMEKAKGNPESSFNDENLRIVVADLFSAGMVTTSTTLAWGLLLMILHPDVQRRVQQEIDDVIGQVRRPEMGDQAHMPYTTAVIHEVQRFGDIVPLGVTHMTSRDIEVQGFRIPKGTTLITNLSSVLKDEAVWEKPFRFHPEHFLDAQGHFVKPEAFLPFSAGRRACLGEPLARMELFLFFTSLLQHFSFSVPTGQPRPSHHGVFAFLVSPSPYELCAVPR
Experiment: Cytochrome P450 family 2 subfamily D member 6 (CYP2D6) small molecule antagonists: luciferase biochemical (cell-free) qHTS assay (AID 1645840); also: nearly all actives have a fitted effect of over 55% in size
Conditions: P450-Glo CYP2D6 enzyme, luciferin luminescence, 1 h; series mostly up to 57.4 µM
Records with an inconclusive call do not appear. Active and inactive are the calls of the source. Calls follow the shape of the dose curve; as a rule, active = well fitted inhibition curve with a large enough effect in the repeat runs; inconclusive = weak or mixed curves; inactive = flat fitted curve, though single readings scatter.
Labels: yes (1) = active, no (0) = inactive

>  <MOLECULE>
COc1ccc(CCC(C)=O)cc1

>  <ASSIGNED CLASS>
no (0)

$$$$
>  <MOLECULE>
CN(C)CCCOC1(Cc2ccccc2)CCCCCC1

>  <ASSIGNED CLASS>
yes (1)

$$$$
>  <MOLECULE>
CC(CC(C#N)(c1ccccc1)C(C)C)N(C)C (stereo not drawn)

>  <ASSIGNED CLASS>
yes (1)

$$$$
>  <MOLECULE>
CC(=O)/C=C/C=C1/C2CCC(C2)C1(C)C (stereo not drawn)

>  <ASSIGNED CLASS>
yes (1)

$$$$
>  <MOLECULE>
Cc1sccc1Br

>  <ASSIGNED CLASS>
no (0)

$$$$
>  <MOLECULE>
CCCCCCCCCCCC[N+](C)(C)Cc1ccccc1

>  <ASSIGNED CLASS>
yes (1)

$$$$
>  <MOLECULE>
COc1cc(/C=C/C(N)=O)cc(OC)c1OC

>  <ASSIGNED CLASS>
no (0)

$$$$
>  <MOLECULE>
C[C@H]1C[C@H](O)c2ccsc2S1(=O)=O

>  <ASSIGNED CLASS>
no (0)

$$$$
>  <MOLECULE>
COC(=O)c1ccc(NC(C)=O)cc1OC

>  <ASSIGNED CLASS>
no (0)

$$$$
>  <MOLECULE>
CC(=O)OCC(=O)[C@@]1(O)[C@H](OC(C)=O)C[C@H]2[C@@H]3CCC4=CC(=O)C=C[C@]4(C)[C@@]3(F)[C@@H](O)C[C@@]21C

>  <ASSIGNED CLASS>
no (0)

$$$$
>  <MOLECULE>
Cc1ncc(CO)c(CO)c1O

>  <ASSIGNED CLASS>
no (0)

$$$$
>  <MOLECULE>
CN(C)CCOC(c1ccccc1)c1ccc(Br)cc1 (stereo not drawn)

>  <ASSIGNED CLASS>
yes (1)

$$$$
>  <MOLECULE>
CN1CCC(N(Cc2cccs2)c2ccccc2)CC1

>  <ASSIGNED CLASS>
yes (1)

$$$$

====

Test: qHTS of pediatric cancer cell lines to identify multiple opportunities for drug repurposing: Primary screen for BT-37 cells (AID 1347094)
Conditions: BT-37 viability, CellTiter-Glo luminescence, 48 h; series mostly up to 57.3 µM
Records with an inconclusive call do not appear. Activity calls are given as the source filed them. Calls come from the whole dose curve; as a rule, active = well fitted cell-killing curve with a large enough effect; inconclusive = small, poorly fitted or top-dose-only effect; inactive = flat fitted curve, though single readings scatter.
Labels: active, inactive

>  <MOLECULE>
COc1cc(C=O)ccc1O

>  <ASSIGNED CLASS>
inactive

$$$$
>  <MOLECULE>
C/C(=C(/OCCOc1ccc(Cl)cc1)c1ccc(Cl)cc1Cl)n1ccnc1

>  <ASSIGNED CLASS>
inactive

$$$$
>  <MOLECULE>
Nc1c(NC/C=C\COc2cc(CN3CCCCC3)ccn2)c(=O)c1=O

>  <ASSIGNED CLASS>
inactive

$$$$
>  <MOLECULE>
OC1(c2ccc(Cl)c(C(F)(F)F)c2)CCN(CCCC(c2ccc(F)cc2)c2ccc(F)cc2)CC1

>  <ASSIGNED CLASS>
active

$$$$
>  <MOLECULE>
Cc1oc(=O)oc1COC(=O)[C@@H]1N2C(=O)[C@@H](NC(=O)[C@H](N)c3ccccc3)[C@H]2SC1(C)C

>  <ASSIGNED CLASS>
inactive

$$$$
>  <MOLECULE>
O=[N+]([O-])c1ccc(O)c2ncccc12

>  <ASSIGNED CLASS>
active

$$$$
>  <MOLECULE>
COCCOCC(OC)OC

>  <ASSIGNED CLASS>
inactive

$$$$
>  <MOLECULE>
CCOc1c(N2CCOCC2)cnn(C)c1=O

>  <ASSIGNED CLASS>
inactive

$$$$
>  <MOLECULE>
Cc1[nH]cnc1-c1ccc(Cl)cc1

>  <ASSIGNED CLASS>
inactive

$$$$
>  <MOLECULE>
O=C(O)[C@H](O)[C@@H](O)[C@H](O[C@@H]1O[C@H](CO)[C@H](O)[C@H](O)[C@H]1O)[C@H](O)CO

>  <ASSIGNED CLASS>
inactive

$$$$
>  <MOLECULE>
Cc1cc(CCCOc2c(C)cc(-c3noc(C(F)(F)F)n3)cc2C)on1

>  <ASSIGNED CLASS>
inactive

$$$$
>  <MOLECULE>
CN1CC(=O)N2[C@H](c3ccc4c(c3)OCO4)c3[nH]c4ccccc4c3C[C@@H]2C1=O

>  <ASSIGNED CLASS>
inactive

$$$$
>  <MOLECULE>
C[C@H](CN1CCCC1)C(=O)c1ccc(C(F)(F)F)cc1

>  <ASSIGNED CLASS>
inactive

$$$$
>  <MOLECULE>
O=C1Nc2cc(Cl)ccc2Oc2ccccc21

>  <ASSIGNED CLASS>
inactive

$$$$
>  <MOLECULE>
CCCCCCCCCCCCCC[N+](C)(C)C

>  <ASSIGNED CLASS>
active

$$$$
>  <MOLECULE>
CCOc1ccc(NS(=O)(=O)c2ccc(N)cc2)nn1

>  <ASSIGNED CLASS>
inactive

$$$$
>  <MOLECULE>
CC(C)C(=O)Nc1cccc(C(F)(F)F)c1

>  <ASSIGNED CLASS>
inactive

$$$$
>  <MOLECULE>
O=C(O)CCCC[C@@H]1SC[C@@H]2NC(=O)N[C@@H]21

>  <ASSIGNED CLASS>
inactive

$$$$
>  <MOLECULE>
CCOCCn1c(C2CCN(CCc3ccc(C(C)(C)C(=O)O)cc3)CC2)nc2ccccc21

>  <ASSIGNED CLASS>
inactive

$$$$
>  <MOLECULE>
CCC(C(=O)NC(=O)NC(C)=O)c1ccccc1 (centres undefined)

>  <ASSIGNED CLASS>
inactive

$$$$
>  <MOLECULE>
NCC(=O)O

>  <ASSIGNED CLASS>
inactive

$$$$
>  <MOLECULE>
CC(C)(C)c1ccc(C(=O)CCCCl)cc1

>  <ASSIGNED CLASS>
inactive

$$$$
>  <MOLECULE>
Nc1ccc(C(=O)OCC(O)CO)cc1 (centres undefined)

>  <ASSIGNED CLASS>
inactive

$$$$
>  <MOLECULE>
O=C(O)c1[nH]n(-c2ccc(S(=O)(=O)O)cc2)c(=O)c1N=Nc1ccc(S(=O)(=O)O)cc1

>  <ASSIGNED CLASS>
inactive

$$$$
